Measured values drawn from IntAct's records for PubMed 29039417 for this set.

B1: Isoform 2 of Bardet-Biedl syndrome 7 protein (Homo sapiens), Q8IWZ6-2 (parent)
chain: MDLILNRMDYLQVGVTSQKTMKLIPASRHRATQKVVIGDHDGVVMCFGMKKGEAAAVFKTLPGPKIARLELGGVINTPQEKIFIAAASEIRGFTKRGKQFLSFETNLTESIKAMHISGSDLFLSASYIYNHYCDCKDQHYYLSGDKINDVICLPVERLSRITPVLACQDRVLRVLQGSDVMYAVEVPGPPTVLALHNGNGGDSGEDLLFGTSDGKLALIQITTSKPVRKWEIQNEKKRGGILCIDSFDIVGDGVKDLLVGRDDGMVEVYSFDNANEPVLRFDQMLSESVTSIQGGCVGKDSYDEIVVSTYSGWVTGLTTEPIHKESGPGEELKINQEMQNKISSLRNELEHLQYKVLQERENYQQSSQSSKAKSAVPSFGINDKFTLNKDDASYSLILEVQTAIDNVLIQSDVPIDLLDVDKNSAVVSFSSCDSESNDNFLLATYRCQADTTRLELKIRSIEGQYGTLQAYVTPRIQPKTCQVRQYHIKPLSLHQRTHFIDHDRPMNTLTLTGQFSFAEVHSWVVFCLPEVPEKPPAGECVTFYFQNTFLDTQLESTYRKGEGVFKSDNISTISILKDVLSKEATKRKINLNISYEINEVSVKHTLKLIHPKLEYQLLLAKKVQLIDALKELQIHEGNTNFLIPEYHCILEEADHLQEEYKKQPAHLERLYG
partner: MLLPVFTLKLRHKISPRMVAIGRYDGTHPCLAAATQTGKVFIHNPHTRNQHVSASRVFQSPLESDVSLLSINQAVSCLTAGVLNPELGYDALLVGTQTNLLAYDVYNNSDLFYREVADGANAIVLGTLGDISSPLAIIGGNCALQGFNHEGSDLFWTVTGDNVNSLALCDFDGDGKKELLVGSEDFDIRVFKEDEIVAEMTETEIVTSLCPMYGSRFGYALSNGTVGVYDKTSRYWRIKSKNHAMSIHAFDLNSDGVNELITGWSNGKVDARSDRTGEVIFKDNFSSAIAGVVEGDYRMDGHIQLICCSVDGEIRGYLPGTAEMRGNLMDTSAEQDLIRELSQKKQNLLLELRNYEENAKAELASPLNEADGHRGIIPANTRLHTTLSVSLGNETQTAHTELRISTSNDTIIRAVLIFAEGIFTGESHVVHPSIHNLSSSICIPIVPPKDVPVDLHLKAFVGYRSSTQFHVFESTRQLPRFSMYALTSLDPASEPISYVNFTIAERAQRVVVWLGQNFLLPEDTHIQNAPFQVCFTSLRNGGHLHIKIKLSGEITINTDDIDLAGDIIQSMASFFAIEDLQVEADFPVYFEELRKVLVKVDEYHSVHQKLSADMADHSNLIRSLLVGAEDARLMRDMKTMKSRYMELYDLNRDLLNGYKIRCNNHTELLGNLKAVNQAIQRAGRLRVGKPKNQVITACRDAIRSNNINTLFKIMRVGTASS

Variants of: B1
condition_summary: with bbs2_human BBS2, Q9BXC9
attribute_measured: effect of a mutation on the interaction

Solved cases (4 shown):
mutation_string	effect of a mutation on the interaction
F543K	with no effect
K607A	with no effect
D421K	with no effect
P611E	with no effect

Hi, could you look up effect of a mutation on the interaction for each item in my list?
1. D390E
2. R559K
3. S393K
4. E462K
5. L454E
6. D568K

1. with no effect
2. with no effect
3. with no effect
4. with no effect
5. with no effect
6. with no effect
